experimentalProtocol: ATG_SREBP_CIS: Attagene CIS-FACTORIAL HepG2 Assay for human Sterol Regulatory Element Binding (SREBP) (AID 2282962)
runConditions: HepG2 Attagene cis-factorial SREBP reporter, mRNA; actives raise or lower the signal
Active and inactive are the calls of the source. How the source made its calls: active means hit-call score of the fitted dose curve at least 0.9, where 1 is the maximum; inactive means score below 0.9.
Outcome (select one): t = active, f = inactive

compoundStructure | classLabel
CCCCCCCCCCCCN1CCCCCC1=O | f

Task item: Please state the recorded outcome for this compound: `OCC#CCO`
Reply: f

Task item: Any idea what this test logged for `CCCCCCCCN1CCCC1=O` ?
Reply: f

Task item: Per the records of this test, what outcome belongs to `COc1cc([C@@H]2c3cc4c(cc3[C@@H](O[C@@H]3O[C@@H]5CO[C@@H](C)O[C@H]5[C@H](O)[C@H]3O)[C@H]3COC(=O)[C@H]23)OCO4)cc(OC)c1O` ?
Reply: f

Task item: Could you please tell me the result logged for `O=C(CC(=O)c1ccccc1)c1ccccc1` in this assay?
Reply: t

Task item: For `C[N+](C)(C)CCCCCC[N+](C)(C)C` , which call appears in the assay record?
Reply: f

====

measuredOn: Heat shock factor protein 1 (Homo sapiens)
experimentalProtocol: ATG_HSE_CIS: Attagene CIS-FACTORIAL HepG2 Assay for human Heat Shock Transcription Factor 1 (HSE) (AID 2282953)
runConditions: HepG2 HSE cis-reporter, Attagene RNA transcription; actives raise or lower the signal
Activity calls are given as the source filed them. How the source made its calls: active means hit-call score of the fitted dose curve at least 0.9, where 1 is the maximum; inactive means score below 0.9.
Form entry, call: pick from active, inactive

molecule | classLabel
Cc1ccc(N)c(S(=O)(=O)O)c1 | inactive

Task item: Entry `COc1ccccc1N=Nc1c(S(=O)(=O)O)cc2cc(S(=O)(=O)O)cc(NC(C)=O)c2c1O` : call = ?
Reply: inactive

Task item: Called result for `O=C(O)c1cc(C(=O)O)cc([N+](=O)[O-])c1`
Reply: inactive

Task item: Please indicate how the test categorized COC(CC(C)CCCC(C)(C)O)OC (configuration not stated) .
Reply: inactive

Task item: Look up the recorded call for `CCCCCC(C=O)=Cc1ccccc1` in this test.
Reply: active

Task item: Can you look up the reported call for `O=C(O)CCCCCCCCC(=O)O` for me?
Reply: inactive

Task item: How did this test come out for `COc1cccc(OC)c1O` ?
Reply: inactive

====

experimentalProtocol: BSK_4H_Eotaxin3: BioMAP Diversity Plus: 4H Assay for Eotaxin 3 Biomarker Activity (AID 2283000)
runConditions: primary human endothelial cells (HUVEC); actives raise or lower the signal
Activity calls are given as the source filed them. The calls were made as follows: active = hit-call score of the fitted dose curve at least 0.9, where 1 is the maximum; inactive = score below 0.9.
Valid outcomes are listed here; reply with one: True (active), False (inactive)

Example results:
compound | classLabel
CC=Cc1ccc(OCC)c(O)c1 | False
C[C@@H]1CCN(C(=O)[C@H](CCCN=C(N)N)NS(=O)(=O)c2cccc3c2NC[C@H](C)C3)[C@@H](C(=O)O)C1 | False
O=C1c2ccccc2C(=O)c2c(O)ccc(O)c21 | True
Cc1cc(CCC(=O)OCCOCCOCCOC(=O)CCc2cc(C)c(O)c(C(C)(C)C)c2)cc(C(C)(C)C)c1O | False
CN(C)C(=S)SC(=S)N(C)C | True

Task item: Hello, I am checking results. What call was entered for `IC(I)I` ?
Reply: False

Task item: I'd appreciate the recorded outcome for `CCCCCC(C=O)=Cc1ccccc1` from this test.
Reply: True

Task item: Could you kindly confirm the outcome this assay logged for `CCCCN(CCCC)C(=O)N(CCCC)CCCC` ?
Reply: True

Task item: Record request — test call for `CS(=O)(=O)c1ccc(C2=C(c3ccccc3)C(=O)OC2)cc1`
Reply: False

Task item: // param item: CCCCCCC(CO)CCCC (configuration not stated) ; yields the recorded call
Reply: False

Task item: Kindly provide the recorded test outcome for the following compound: CC(C=O)Cc1ccc(C(C)(C)C)cc1 (configuration not stated)
Reply: True

Task item: // return assay outcome for `CN(c1nccc(=O)[nH]1)C1CCN(c2nc3ccccc3n2Cc2ccc(F)cc2)CC1`
Reply: False
